tested on: KRAS patient-derived spheroids with HUVEC/MSC, viability; experiment: Anticancer human tumor 323965-272-R-J2-PDC patient-derived pancreatic carcinoma cell line growth inhibition [KRAS2]; conditions: second compound 3.16 µM; first compound 0.0001 µM; stronger effect = lower value
RECORDED METRIC: viability, T/C (%)
// return numeric value only (unit: %, not printed)

Lab entry: KRAS patient-derived spheroids with HUVEC/MSC, viability assay, compound CC(=O)Nc1cccc(-n2c(=O)n(C3CC3)c(=O)c3c(Nc4ccc(I)cc4F)n(C)c(=O)c(C)c32)c1 + C=CC(=O)N1CCN(c2nc(OCC3CCCN3C)nc3c2CCN(c2cccc4cccc(C)c24)C3)CC1CC#N , viability, T/C = 26

Entry CC(=O)Nc1cccc(-n2c(=O)n(C3CC3)c(=O)c3c(Nc4ccc(I)cc4F)n(C)c(=O)c(C)c32)c1 + C=CC(=O)N1CCN(c2nc(=O)n(-c3c(C)ccnc3C(C)C)c3nc(-c4c(O)cccc4F)c(F)cc23)C(C)C1 , KRAS patient-derived spheroids with HUVEC/MSC, viability data, viability, T/C value: 64.1

Field viability, T/C (KRAS patient-derived spheroids with HUVEC/MSC, viability), entry CC(=O)Nc1cccc(-n2c(=O)n(C3CC3)c(=O)c3c(Nc4ccc(I)cc4F)n(C)c(=O)c(C)c32)c1 + COc1cc2nc(C)nc(NC(C)c3cc(N)cc(C(F)(F)F)c3)c2cc1OC1CCOC1 : 73

So the reported viability, T/C for CC(=O)Nc1cccc(-n2c(=O)n(C3CC3)c(=O)c3c(Nc4ccc(I)cc4F)n(C)c(=O)c(C)c32)c1 + CNCc1ccccc1-c1csc(C(C)Nc2nc(C)nc3cc(OC)c(OC)cc23)c1 , on KRAS patient-derived spheroids with HUVEC/MSC, viability, turned out to be 95.6

Simply: CC(=O)Nc1cccc(-n2c(=O)n(C3CC3)c(=O)c3c(Nc4ccc(I)cc4F)n(C)c(=O)c(C)c32)c1 + CC1OCC2(CCN(c3cnc(Sc4ccnc(N)c4Cl)c(N)n3)CC2)C1N , KRAS patient-derived spheroids with HUVEC/MSC, viability, viability, T/C = 29

###

tested on: KRAS patient-derived spheroids with HUVEC/MSC, viability; assay: Anticancer human tumor 323965-272-R-J2-PDC cell line growth inhibition [KRAS2]; conditions: curve of first compound; second compound 0.316 µM;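 also: spheroids exposed to agents for 7 days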
So I've got a bunch of compounds here, and I need their IC50 values.
Please give a number only; it is taken to be in nM.

What the record says about CC1OCC2(CCN(c3cnc(Sc4ccnc(N)c4Cl)c(N)n3)CC2)C1N (stereo not given) + COc1cc2nc(C)nc(NC(C)c3cc(N)cc(C(F)(F)F)c3)c2cc1OC1CCOC1 : IC50 is 54.9

For CN(C)C/C=C/C(=O)Nc1cc2c(Nc3ccc(F)c(Cl)c3)ncnc2cc1O[C@H]1CCOC1 + C=CC(=O)N1CCN(c2nc(OCC3CCCN3C)nc3c2CCN(c2cccc4cccc(C)c24)C3)CC1CC#N the compound record lists IC50 as 2.3

###

system: KRAS patient-derived spheroids with HUVEC/MSC, viability; assay: Anticancer human tumor 323965-272-R-J2-PDC cell line growth inhibition [KRAS2]; settings: curve of first compound; second compound 0.316 µM;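 also: spheroids exposed to agents for 7 days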
RECORDED METRIC: IC50

So for CCN1CCN(Cc2ccc(Nc3ncc(F)c(-c4cc(F)c5nc(C)n(C(C)C)c5c4)n3)nc2)CC1 + COc1cc2nc(C)nc(NC(C)c3cc(N)cc(C(F)(F)F)c3)c2cc1OC1CCOC1 , the logged IC50 turned out to be 0.0259 µM

IC50 in this record for CC1COCCN1c1cc(-c2ccnn2C)c2ccnc(-c3ccn[nH]3)c2n1 (stereo not given) + C=CC(=O)N1CCN(c2nc(OCC3CCCN3C)nc3c2CCN(c2cccc4cccc(C)c24)C3)CC1CC#N : < 0.01 µM

Kindly note the recorded IC50 for CC(=O)OC12COC1CC(O)C1(C)C(=O)C(O)C3=C(C)C(OC(=O)C(O)C(NC(=O)OC(C)(C)C)c4ccccc4)CC(O)(C(OC(=O)c4ccccc4)C21)C3(C)C (stereo not given) + CC1OCC2(CCN(c3cnc(Sc4ccnc(N)c4Cl)c(N)n3)CC2)C1N , which is < 0.01 µM

IC50 in this record for COc1cc2nccc(Oc3ccc(NC(=O)C4(C(=O)Nc5ccc(F)cc5)CC4)cc3)c2cc1OC + C=CC(=O)N1CCN(c2nc(=O)n(-c3c(C)ccnc3C(C)C)c3nc(-c4c(O)cccc4F)c(F)cc23)C(C)C1 : > 10 µM

The molecule CCN1CCN(Cc2ccc(Nc3ncc(F)c(-c4cc(F)c5nc(C)n(C(C)C)c5c4)n3)nc2)CC1 + C=CC(=O)N1CCN(c2nc(OCC3CCCN3C)nc3c2CCN(c2cccc4cccc(C)c24)C3)CC1CC#N showed IC50 equal to < 0.00316 µM

###

system: KRAS patient-derived spheroids with HUVEC/MSC, viability; assay: Anticancer human tumor 323965-272-R-J2-PDC cell line growth inhibition [KRAS2]; conditions: second compound 1 µM; first compound 3.16 µM; stronger effect = lower value;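 also: spheroids exposed to agents for 7 days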;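 as to viability, T/C: 100% = DMSO vehicle control viability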
Criterion: viability, T/C strictly less than 20%. Met: y. Not met: n.

Does this compound meet the criterion viability, T/C < 20%? CC1(C)CCC(CN2CCN(c3ccc(C(=O)NS(=O)(=O)c4ccc(NCC5CCOCC5)c([N+](=O)[O-])c4)c(Oc4cnc5[nH]ccc5c4)c3)CC2)=C(c2ccc(Cl)cc2)C1 + CNCc1ccccc1-c1csc(C(C)Nc2nc(C)nc3cc(OC)c(OC)cc23)c1 y

For CC(C)NCC(C(=O)N1CCN(c2ncnc3c2C(C)CC3O)CC1)c1ccc(Cl)cc1 (stereo not given) + CC1OCC2(CCN(c3cnc(Sc4ccnc(N)c4Cl)c(N)n3)CC2)C1N , is the recorded viability, T/C below the cut-off of 20%? y

API: query returns whether the compound falls strictly under 20% in viability, T/C. Query: CC(C)NCC(C(=O)N1CCN(c2ncnc3c2C(C)CC3O)CC1)c1ccc(Cl)cc1 (stereo not given) + CNCc1ccccc1-c1csc(C(C)Nc2nc(C)nc3cc(OC)c(OC)cc23)c1 n

Item CC1COCCN1c1cc(-c2ccnn2C)c2ccnc(-c3ccn[nH]3)c2n1 (stereo not given) + COc1cc2nc(C)nc(NC(C)c3cc(N)cc(C(F)(F)F)c3)c2cc1OC1CCOC1 : viability, T/C beneath 20%, strictly? y

Given the entry O=C(c1cc(Cc2n[nH]c(=O)c3ccccc23)ccc1F)N1CCN(C(=O)C2CC2)CC1 + C=CC(=O)N1CCN(c2nc(=O)n(-c3c(C)ccnc3C(C)C)c3nc(-c4c(O)cccc4F)c(F)cc23)C(C)C1 , would its reported viability, T/C be below 20%? n

###

system: KRAS patient-derived spheroids with HUVEC/MSC, viability; experiment: Anticancer human tumor 323965-272-R-J2-PDC cell line growth inhibition [KRAS2]; conditions: second compound 0.1 µM; first compound 1 µM; stronger effect = lower value;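 also: spheroids exposed to agents for 7 days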;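 as to viability, T/C: 100% = DMSO vehicle control viability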
Please use condition met for viability, T/C under 40% and condition not met for everything else, ties included.

Is it true that viability, T/C reported for Cn1nccc1Nc1nccc(-c2cc3c(s2)C(C)(C)N(CCN2CCOCC2)C3=O)n1 + CNCc1ccccc1-c1csc(C(C)Nc2nc(C)nc3cc(OC)c(OC)cc23)c1 is less than 40%? condition not met

Please check: viability, T/C for CC1OCC2(CCN(c3cnc(Sc4ccnc(N)c4Cl)c(N)n3)CC2)C1N (stereo not given) + CNCc1ccccc1-c1csc(C(C)Nc2nc(C)nc3cc(OC)c(OC)cc23)c1 , strictly under 40% or not? condition met

Consider the molecule COC(=O)c1ccc2c(C(=Nc3ccc(N(C)C(=O)CN4CCN(C)CC4)cc3)c3ccccc3)c(O)[nH]c2c1 + COc1cc2nc(C)nc(NC(C)c3cc(N)cc(C(F)(F)F)c3)c2cc1OC1CCOC1 . Is its viability, T/C strictly less than 40%? condition not met

Given the entry CC1COCCN1c1cc(-c2ccnn2C)c2ccnc(-c3ccn[nH]3)c2n1 (stereo not given) + C=CC(=O)N1CCN(c2nc(OCC3CCCN3C)nc3c2CCN(c2cccc4cccc(C)c24)C3)CC1CC#N , would its reported viability, T/C be below 40%? condition met

Consider CCN1CCN(Cc2ccc(Nc3ncc(F)c(-c4cc(F)c5nc(C)n(C(C)C)c5c4)n3)nc2)CC1 + COc1cc2nc(C)nc(NC(C)c3cc(N)cc(C(F)(F)F)c3)c2cc1OC1CCOC1 . Does its viability, T/C lie strictly below 40%? condition not met

Please let me know if CC1(C)CCC(CN2CCN(c3ccc(C(=O)NS(=O)(=O)c4ccc(NCC5CCOCC5)c([N+](=O)[O-])c4)c(Oc4cnc5[nH]ccc5c4)c3)CC2)=C(c2ccc(Cl)cc2)C1 + C=CC(=O)N1CCN(c2nc(=O)n(-c3c(C)ccnc3C(C)C)c3nc(-c4c(O)cccc4F)c(F)cc23)C(C)C1 shows viability, T/C below 40%. condition not met

Confirm or reject: viability, T/C of CC(=O)OC12COC1CC(O)C1(C)C(=O)C(O)C3=C(C)C(OC(=O)C(O)C(NC(=O)OC(C)(C)C)c4ccccc4)CC(O)(C(OC(=O)c4ccccc4)C21)C3(C)C (stereo not given) + COc1cc2nc(C)nc(NC(C)c3cc(N)cc(C(F)(F)F)c3)c2cc1OC1CCOC1 lies strictly below 40% condition met

Take the molecule COc1cc(Nc2ncc3c(n2)-c2ccc(Cl)cc2C(c2c(F)cccc2OC)=NC3)ccc1C(=O)O + C=CC(=O)N1CCN(c2nc(OCC3CCCN3C)nc3c2CCN(c2cccc4cccc(C)c24)C3)CC1CC#N and say whether its viability, T/C is less than 40%. condition met

Could you please tell me whether viability, T/C recorded for CC1COCCN1c1cc(-c2ccnn2C)c2ccnc(-c3ccn[nH]3)c2n1 (stereo not given) + COc1cc2nc(C)nc(NC(C)c3cc(N)cc(C(F)(F)F)c3)c2cc1OC1CCOC1 is less than 40%? condition met
